test: Cytotoxicity against human HepG2/DOX cells assessed as cell viability at 10 uM measured after 48 hrs by MTT assay relative to control; format: cell-based; settings: read-out: Activity
RECORDED ENDPOINT: viability at 48 h, 10 µM

Asked: What value of viability at 48 h, 10 µM has been recorded for this entry: CCCN(C(=O)CCCCCCC(=O)N(CCC)[C@H]1CC2=CC(=O)O[C@]23C[C@H]1N1CCCC[C@H]13)[C@H]1CC2=CC(=O)O[C@]23C[C@H]1N1CCCC[C@H]13
Given back: > 90%

###

target: UniProt:P08183; experiment: Reversal of P-gp mediated multidrug resistance in human MCF7/ADM cells assessed as potentiation of doxorubicin-induced cell growth inhibition at 10 uM measured after 48 hrs by MTT assay; assay type: cell-based
Sequence (P08183 whole entry): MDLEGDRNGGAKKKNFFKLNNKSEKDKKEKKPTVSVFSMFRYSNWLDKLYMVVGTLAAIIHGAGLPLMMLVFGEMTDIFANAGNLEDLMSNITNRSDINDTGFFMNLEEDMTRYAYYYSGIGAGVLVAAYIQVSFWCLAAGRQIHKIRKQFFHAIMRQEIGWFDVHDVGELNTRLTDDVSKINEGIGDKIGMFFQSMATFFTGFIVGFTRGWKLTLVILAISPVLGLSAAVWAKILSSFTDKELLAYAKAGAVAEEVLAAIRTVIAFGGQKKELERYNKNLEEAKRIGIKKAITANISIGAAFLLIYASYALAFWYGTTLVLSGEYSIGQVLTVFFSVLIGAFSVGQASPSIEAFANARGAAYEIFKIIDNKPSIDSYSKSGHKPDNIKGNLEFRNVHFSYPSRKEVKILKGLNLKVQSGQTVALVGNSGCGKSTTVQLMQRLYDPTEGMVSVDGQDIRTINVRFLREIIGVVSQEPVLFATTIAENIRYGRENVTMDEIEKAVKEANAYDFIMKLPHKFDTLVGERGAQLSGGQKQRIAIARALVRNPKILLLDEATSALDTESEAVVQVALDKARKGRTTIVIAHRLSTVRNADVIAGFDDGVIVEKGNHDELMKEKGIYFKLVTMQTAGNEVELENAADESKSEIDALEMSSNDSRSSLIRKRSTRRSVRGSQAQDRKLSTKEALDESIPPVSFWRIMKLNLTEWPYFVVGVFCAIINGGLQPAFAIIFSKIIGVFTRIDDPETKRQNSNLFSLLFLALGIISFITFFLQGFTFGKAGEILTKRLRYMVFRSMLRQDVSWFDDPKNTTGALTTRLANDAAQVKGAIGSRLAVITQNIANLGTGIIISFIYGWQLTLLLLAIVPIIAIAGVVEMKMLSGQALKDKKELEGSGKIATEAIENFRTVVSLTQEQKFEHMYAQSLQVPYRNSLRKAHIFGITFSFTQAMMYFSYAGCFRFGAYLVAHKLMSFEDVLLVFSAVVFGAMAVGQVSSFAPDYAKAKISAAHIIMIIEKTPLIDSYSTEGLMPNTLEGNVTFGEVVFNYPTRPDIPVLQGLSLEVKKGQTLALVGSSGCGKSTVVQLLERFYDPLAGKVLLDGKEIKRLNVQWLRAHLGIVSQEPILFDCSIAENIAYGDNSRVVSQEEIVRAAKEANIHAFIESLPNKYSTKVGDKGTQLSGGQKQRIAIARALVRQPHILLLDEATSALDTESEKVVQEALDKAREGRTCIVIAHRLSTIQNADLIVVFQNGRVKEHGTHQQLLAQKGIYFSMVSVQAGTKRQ
RECORDED ENDPOINT: inhibition (INH)

Study these solved cases before continuing.
{"columns": ["SMILES REPR", "SYSTEM NAME", "inhibition (INH)"],
 "data": [
  ["CCCN(C(=O)CCCCCCCCC(=O)N(CCC)[C@H]1CC2=CC(=O)O[C@]23C[C@H]1N1CCCC[C@H]13)[C@H]1CC2=CC(=O)O[C@]23C[C@H]1N1CCCC[C@H]13", "UniProt:P08183", "Active"],
  ["CCCN(C(=O)CCCCC(=O)N(CCC)[C@H]1CC2=CC(=O)O[C@]23C[C@H]1N1CCCC[C@H]13)[C@H]1CC2=CC(=O)O[C@]23C[C@H]1N1CCCC[C@H]13", "UniProt:P08183", "Active"],
  ["CCCN(C(=O)CCCCC(=O)N(CCC)[C@H]1CC2=CC(=O)O[C@@]23C[C@@H]1N1CCCC[C@@H]13)[C@H]1CC2=CC(=O)O[C@@]23C[C@@H]1N1CCCC[C@@H]13", "UniProt:P08183", "Not Active"],
  ["CCCN(C(=O)CCCCCCC(=O)N(CCC)[C@H]1CC2=CC(=O)O[C@@]23C[C@@H]1N1CCCC[C@@H]13)[C@H]1CC2=CC(=O)O[C@@]23C[C@@H]1N1CCCC[C@@H]13", "UniProt:P08183", "Not Active"]
]}

Attention now turns to another entry.
Asked: What value of inhibition (INH) has been recorded for this entry: CCCN(C(=O)CCCCCCCC(=O)N(CCC)[C@H]1CC2=CC(=O)O[C@]23C[C@H]1N1CCCC[C@H]13)[C@H]1CC2=CC(=O)O[C@]23C[C@H]1N1CCCC[C@H]13
Given back: Active
